Below, each of the molecules is paired with its reported IC50 value.
Molecular target: HDAC11 (Homo sapiens)
Sequence (Q96DB2 1-347): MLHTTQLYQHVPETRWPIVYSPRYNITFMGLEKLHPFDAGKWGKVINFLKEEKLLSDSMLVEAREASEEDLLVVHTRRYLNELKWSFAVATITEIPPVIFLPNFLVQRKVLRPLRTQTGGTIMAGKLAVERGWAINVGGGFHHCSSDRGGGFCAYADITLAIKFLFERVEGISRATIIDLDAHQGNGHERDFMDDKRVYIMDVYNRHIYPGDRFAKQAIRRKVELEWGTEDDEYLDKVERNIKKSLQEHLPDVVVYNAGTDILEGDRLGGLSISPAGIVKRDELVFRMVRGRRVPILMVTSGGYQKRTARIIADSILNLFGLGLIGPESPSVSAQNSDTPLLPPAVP
Test: HDAC enzymatic assay, HDAC11
Type: biochemical
Conditions: fluorogenic tetrapeptide RHKKAc substrate 10 μM; read-out: HDAC isoforms IC50 (nM), 11
Protocol: Each compound was dissolved in DMSO, and progressively diluted solutions were used for testing. […] Upon its deacetylation, the fluorophore was released given rise to fluorescence emission which was detected by a fluorimeter, and the IC50 values of the compounds were determined by analyzing dose-response inhibition curves.

Cc1ccc(NC(=O)[C@H](CCCCCS)NC(=O)[C@@H]2CCCC(=O)N2)cc1 [Example 39] | < 50 nM
O=C1NC[C@@H](c2ccccc2)[C@H]1C(=O)N[C@@H](CCCCCS)C(=O)Nc1ccccc1 [Example 29] | < 50 nM
O=C1CCC[C@@H](C(=O)N[C@@H](CCCCCS)C(=O)Nc2ccccc2)N1 [Example 23] | < 50 nM

Here's the next entry for you.
Can you share its IC50? I mean this molecule: O=C1CCC[C@@H](C(=O)N[C@@H](CCCCCS)C(=O)N2CCc3ccccc3C2)N1 [Example 32]
100 to 500 nM

###

molecular target: HDAC9 (Homo sapiens); test: HDAC enzymatic assay, HDAC9; format: biochemical; conditions: fluorogenic tetrapeptide RHKKAc substrate 10 μM; read-out: HDAC isoforms IC50 (nM), 9
Sequence (Q9UKV0 whole entry, canonical isoform): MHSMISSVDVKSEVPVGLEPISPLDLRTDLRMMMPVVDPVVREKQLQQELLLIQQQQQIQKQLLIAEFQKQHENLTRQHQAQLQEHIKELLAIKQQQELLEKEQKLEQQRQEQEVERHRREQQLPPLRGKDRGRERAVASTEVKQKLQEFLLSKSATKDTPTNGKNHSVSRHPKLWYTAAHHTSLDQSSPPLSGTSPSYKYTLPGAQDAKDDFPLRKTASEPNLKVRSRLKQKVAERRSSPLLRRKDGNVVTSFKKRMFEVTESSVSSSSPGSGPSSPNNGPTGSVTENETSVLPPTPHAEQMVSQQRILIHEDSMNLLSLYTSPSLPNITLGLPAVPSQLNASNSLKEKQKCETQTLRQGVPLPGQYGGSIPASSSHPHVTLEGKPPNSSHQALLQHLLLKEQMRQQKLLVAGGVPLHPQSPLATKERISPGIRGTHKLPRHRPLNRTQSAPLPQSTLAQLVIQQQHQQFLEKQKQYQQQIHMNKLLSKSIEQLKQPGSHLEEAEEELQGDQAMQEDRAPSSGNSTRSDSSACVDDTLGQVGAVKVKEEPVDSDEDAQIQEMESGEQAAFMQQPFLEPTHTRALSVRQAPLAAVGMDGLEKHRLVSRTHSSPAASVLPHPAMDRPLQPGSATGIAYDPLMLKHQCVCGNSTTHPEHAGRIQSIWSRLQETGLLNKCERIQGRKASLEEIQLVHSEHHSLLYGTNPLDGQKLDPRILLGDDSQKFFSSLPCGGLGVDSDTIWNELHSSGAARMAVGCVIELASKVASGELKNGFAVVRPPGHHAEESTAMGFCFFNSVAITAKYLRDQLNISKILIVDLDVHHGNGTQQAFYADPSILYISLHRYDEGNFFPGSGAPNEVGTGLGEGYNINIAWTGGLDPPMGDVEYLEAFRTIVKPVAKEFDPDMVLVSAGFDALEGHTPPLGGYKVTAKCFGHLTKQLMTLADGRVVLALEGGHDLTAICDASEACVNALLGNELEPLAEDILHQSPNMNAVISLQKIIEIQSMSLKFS
READOUT: IC50

Cc1cccc(CCNC(=O)[C@H](CCCCCS)NC(=O)[C@@H]2CCCC(=O)N2)c1 | 100 to 500 nM
O=C1CCC[C@@H](C(=O)N[C@@H](CCCCCS)C(=O)Nc2ccccc2)N1 | < 50 nM

Now let's try a different one.
Value lookup for IC50; key = O=C1CCC[C@@H](C(=O)N[C@@H](CCCCCS)C(=O)NCc2cccc(OCc3ccccc3)c2)N1
100 to 500 nM

###

Some molecules, each annotated with its measured IC50.
test system: NCI-H460 non-small cell lung carcinoma cells; test: Cytotoxicity, sulphorodamine B, H460; conditions: Homo sapiens, NCI-H460, read-out: H460 cell line IC50 (μM)

Known results for molecules:
CC(=O)SCCCCC[C@H](NC(=O)[C@@H]1CCCC(=O)N1)C(=O)Nc1cccc(C)c1 [Example 16] | < 0.5 µM
CC(=O)SCCCCC[C@H](NC(=O)[C@H]1CCC(=O)N1)C(=O)Nc1cccc(C(F)(F)F)c1 [Example 18] | < 0.5 µM
CC(=O)SCCCCC[C@H](NC(=O)[C@@H]1CCCC(=O)N1)C(=O)NCCc1cccc(C)c1 [Example 5] | 1 to 10 µM

Any idea what IC50 was measured for CC(=O)SCCCCC[C@H](NC(=O)[C@H]1CCC(=O)N1C)C(=O)Nc1cccc(C)c1 [Example 6] ?
< 0.5 µM

###

Molecular target: HDAC3 (complex of full length human HDAC3 with human NCOR2 amino acids 395-489) (Homo sapiens, UniProt O15379)
Construct: complex of full length human HDAC3 with a C-terminal His-tag; His-tag (C); host or cells: baculovirus expression system
Sequence (O15379 whole entry, the tested form may be a part): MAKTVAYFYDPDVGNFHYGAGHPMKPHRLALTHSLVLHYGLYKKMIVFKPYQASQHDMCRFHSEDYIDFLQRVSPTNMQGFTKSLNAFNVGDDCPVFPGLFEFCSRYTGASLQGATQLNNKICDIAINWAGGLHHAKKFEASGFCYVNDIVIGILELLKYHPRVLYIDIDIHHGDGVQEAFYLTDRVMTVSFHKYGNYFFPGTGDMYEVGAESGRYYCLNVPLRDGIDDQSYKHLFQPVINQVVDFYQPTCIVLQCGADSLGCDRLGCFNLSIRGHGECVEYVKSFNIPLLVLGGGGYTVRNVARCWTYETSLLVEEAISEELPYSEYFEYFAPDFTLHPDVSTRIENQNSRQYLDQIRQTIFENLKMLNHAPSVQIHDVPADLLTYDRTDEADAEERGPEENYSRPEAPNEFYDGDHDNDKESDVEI
Sequence (Q9Y618 395-489 partner limits assumed): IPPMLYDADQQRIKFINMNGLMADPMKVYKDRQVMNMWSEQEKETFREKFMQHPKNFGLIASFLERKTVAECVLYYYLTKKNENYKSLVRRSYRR
Experiment: HDAC enzymatic assay, HDAC3
Assay type: biochemical
Settings: fluorogenic tetrapeptide RHKKAc substrate 10 μM; read-out: HDAC isoforms IC50 (nM), 3
Procedure: Each compound was dissolved in DMSO, and progressively diluted solutions were used for testing. […] Upon its deacetylation, the fluorophore was released given rise to fluorescence emission which was detected by a fluorimeter, and the IC50 values of the compounds were determined by analyzing dose-response inhibition curves.
Entries and their IC50 values follow.

O=C1CC[C@H](C(=O)N[C@@H](CCCCCS)C(=O)Nc2ccccc2)N1 [Example 33] | < 50 nM
O=C1NC[C@H](c2ccccc2)[C@H]1C(=O)N[C@@H](CCCCCS)C(=O)Nc1ccccc1 [Example 30] | 50 to 100 nM
O=C1CCC[C@H](C(=O)N[C@@H](CCCCCS)C(=O)Nc2ccccc2)N1 [Example 37] | < 50 nM
O=C1C[C@@H](C(=O)N[C@@H](CCCCCS)C(=O)Nc2ccccc2)N1 [Example 27] | < 50 nM

Fill in the blank: the reported IC50 of O=C1NCCC[C@H]1C(=O)N[C@@H](CCCCCS)C(=O)Nc1ccccc1 [Example 35] is ____.
< 50 nM
